# targetUnderTest: wildtype LRRK2 (Homo sapiens)
# Construct: endogenous in cells; host or cells: HEK293 with HiBit knocked in at the 3' end of the endogenous LRRK2 gene, stably expressing firefly luciferase
# Sequence (Q5S007 whole entry): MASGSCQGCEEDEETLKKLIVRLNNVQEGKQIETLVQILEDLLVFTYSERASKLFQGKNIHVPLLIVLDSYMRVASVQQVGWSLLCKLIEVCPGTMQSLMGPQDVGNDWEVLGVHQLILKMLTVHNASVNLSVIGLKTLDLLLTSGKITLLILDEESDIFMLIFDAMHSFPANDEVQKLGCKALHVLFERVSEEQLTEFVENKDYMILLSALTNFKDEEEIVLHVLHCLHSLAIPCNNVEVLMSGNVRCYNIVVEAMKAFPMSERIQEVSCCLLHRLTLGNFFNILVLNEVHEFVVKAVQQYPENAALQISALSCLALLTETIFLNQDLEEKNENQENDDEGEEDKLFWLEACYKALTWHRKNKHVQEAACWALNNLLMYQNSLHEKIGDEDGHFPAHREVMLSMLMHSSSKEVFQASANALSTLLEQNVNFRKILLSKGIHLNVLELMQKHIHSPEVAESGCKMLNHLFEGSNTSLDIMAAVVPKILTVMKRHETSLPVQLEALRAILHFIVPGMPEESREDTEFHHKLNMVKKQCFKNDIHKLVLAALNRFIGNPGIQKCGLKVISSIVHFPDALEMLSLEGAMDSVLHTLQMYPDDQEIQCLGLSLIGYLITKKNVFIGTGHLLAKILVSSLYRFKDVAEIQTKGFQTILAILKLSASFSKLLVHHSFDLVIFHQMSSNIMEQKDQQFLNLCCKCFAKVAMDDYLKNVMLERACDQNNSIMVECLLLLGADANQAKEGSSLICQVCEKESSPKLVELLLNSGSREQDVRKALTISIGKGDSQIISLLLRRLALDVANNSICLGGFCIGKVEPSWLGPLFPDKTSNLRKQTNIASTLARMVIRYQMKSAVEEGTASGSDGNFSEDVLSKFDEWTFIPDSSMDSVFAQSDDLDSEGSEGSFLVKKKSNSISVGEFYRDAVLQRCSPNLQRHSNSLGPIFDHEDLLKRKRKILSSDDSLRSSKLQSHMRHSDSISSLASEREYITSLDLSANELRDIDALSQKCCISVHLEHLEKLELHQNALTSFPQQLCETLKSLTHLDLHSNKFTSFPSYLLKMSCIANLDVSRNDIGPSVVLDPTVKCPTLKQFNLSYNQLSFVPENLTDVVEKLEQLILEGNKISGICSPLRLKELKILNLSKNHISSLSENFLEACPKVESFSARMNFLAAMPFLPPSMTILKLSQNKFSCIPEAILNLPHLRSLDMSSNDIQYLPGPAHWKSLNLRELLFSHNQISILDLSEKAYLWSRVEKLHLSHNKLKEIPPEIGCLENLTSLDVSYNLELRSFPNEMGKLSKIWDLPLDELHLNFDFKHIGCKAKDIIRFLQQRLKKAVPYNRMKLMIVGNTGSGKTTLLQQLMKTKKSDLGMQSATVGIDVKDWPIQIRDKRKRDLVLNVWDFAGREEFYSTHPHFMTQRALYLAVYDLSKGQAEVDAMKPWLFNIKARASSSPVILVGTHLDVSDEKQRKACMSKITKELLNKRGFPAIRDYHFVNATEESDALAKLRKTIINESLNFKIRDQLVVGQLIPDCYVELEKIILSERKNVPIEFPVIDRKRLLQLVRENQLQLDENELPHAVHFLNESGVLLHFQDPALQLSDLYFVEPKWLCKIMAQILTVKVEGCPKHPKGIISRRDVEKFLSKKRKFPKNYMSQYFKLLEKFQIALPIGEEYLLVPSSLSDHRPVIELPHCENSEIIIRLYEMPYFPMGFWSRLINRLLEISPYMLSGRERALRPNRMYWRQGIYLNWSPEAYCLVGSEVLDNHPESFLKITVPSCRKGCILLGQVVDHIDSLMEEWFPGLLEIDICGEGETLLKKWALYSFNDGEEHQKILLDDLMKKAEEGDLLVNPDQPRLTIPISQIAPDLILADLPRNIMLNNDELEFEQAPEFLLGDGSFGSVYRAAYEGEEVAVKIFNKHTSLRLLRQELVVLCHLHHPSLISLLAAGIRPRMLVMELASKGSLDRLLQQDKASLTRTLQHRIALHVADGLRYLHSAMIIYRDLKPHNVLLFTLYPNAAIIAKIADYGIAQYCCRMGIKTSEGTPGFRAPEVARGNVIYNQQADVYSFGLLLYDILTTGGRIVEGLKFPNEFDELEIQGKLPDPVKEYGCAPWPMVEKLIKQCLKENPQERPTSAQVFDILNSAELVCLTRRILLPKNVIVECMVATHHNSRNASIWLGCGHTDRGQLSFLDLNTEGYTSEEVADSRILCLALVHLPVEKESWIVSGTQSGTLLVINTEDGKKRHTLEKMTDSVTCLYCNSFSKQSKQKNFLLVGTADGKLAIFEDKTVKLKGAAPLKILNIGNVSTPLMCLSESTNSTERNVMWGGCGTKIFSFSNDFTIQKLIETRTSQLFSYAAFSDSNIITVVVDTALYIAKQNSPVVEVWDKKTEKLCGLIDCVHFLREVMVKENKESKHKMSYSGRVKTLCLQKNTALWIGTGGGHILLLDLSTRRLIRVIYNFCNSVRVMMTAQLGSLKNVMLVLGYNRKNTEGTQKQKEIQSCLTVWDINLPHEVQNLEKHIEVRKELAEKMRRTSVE
# procedureText: LRRK2 degradation HiBit assay, wildtype LRRK2 tagged with a HiBit tag in HEK293 cells
# Type: cell-based
# conditionSet: 24 hours compound incubation, read-out: *WT DC50
Please provide measured DC50 for the entries that follow.

Sample answers from the record:
{"columns": ["compound", "DC50"],
 "data": [
  ["CC1=C(C(=O)Nc2ccc3[nH]nc(-c4ccnc(N5C[C@@H](C)N(CCN6CCN(c7ccc8c(c7)C(=O)N(C7CCC(=O)NC7=O)C8=O)CC6)[C@@H](C)C5)c4)c3c2)Cn2nnnc2N1C (some centres unmarked) [compound 5]", "≥ 100 nM"],
  ["CC1=C(C(=O)Nc2ccc3[nH]nc(-c4ccnc(N5CCN(CC6CCN(CC7CCN(c8ccc9c(c8)C(=O)N(C8CCC(=O)NC8=O)C9=O)CC7)CC6)[C@@H](C)C5)c4)c3c2)C(C)(C)n2nnnc2N1C (some centres unmarked) [compound 34]", "≥ 100 nM"],
  ["CC1=C(C(=O)Nc2ccc3[nH]nc(-c4ccnc(N5CCO[C@@H](CN6CCN(CC7CCN(c8ccc9c(c8)C(=O)N(C8CCC(=O)NC8=O)C9=O)CC7)CC6)C5)c4)c3c2)C(C)(C)n2nnnc2N1C (some centres unmarked) [compound 32]", "≥ 100 nM"],
  ["CC1=C(C(=O)Nc2ccc3[nH]nc(-c4ccnc(N5CCN(CC6CCN(CC7CCN(c8ccc9c(c8)C(=O)N(C8CCC(=O)NC8=O)C9=O)CC7)CC6)CC5)c4)c3c2)Cn2nnnc2N1C (centres unmarked) [compound 13]", "≥ 100 nM"]
]}

Give recorded DC50. CC1=C(C(=O)Nc2ccc3[nH]nc(-c4ccnc(N5CCN(CC6CCN(CC7CCN(c8ccc9c(c8)C(=O)N(C8CCC(=O)NC8=O)C9=O)CC7)CC6)CC5)c4)c3c2)[C@@H](C)n2nnnc2N1C (some centres unmarked) [compound 11]
50 to 100 nM
